biological target: human ApoC3 (human); test: SPR pH 7.4
Sequence (chain, as listed by the source): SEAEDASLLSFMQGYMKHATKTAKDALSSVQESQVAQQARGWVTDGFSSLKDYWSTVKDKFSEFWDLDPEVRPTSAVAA
experimental.endpoint: Kd
Please provide the amount together with its unit, number first.

Below are worked cases with known answers.
1. 5E5VH12_VLWT scFv-Fc (antibody, V domains shown) VH: QLQLVESGGGLVQPGGSLRLSCAASGFTFGTYSMRWVRQVPRKALEWVSSISTDGGGTAYRDSVKGRFTISRDNAKNTLYLQMNNLKPEDTAIYYCVIHGYSDWGQGTQVTVSS VL: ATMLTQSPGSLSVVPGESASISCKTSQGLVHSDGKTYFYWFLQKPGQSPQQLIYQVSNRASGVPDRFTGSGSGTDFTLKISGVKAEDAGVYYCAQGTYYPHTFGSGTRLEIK : 510 pM
2. 5E5VH5_VLWT scFv-Fc (antibody, V domains shown) VH: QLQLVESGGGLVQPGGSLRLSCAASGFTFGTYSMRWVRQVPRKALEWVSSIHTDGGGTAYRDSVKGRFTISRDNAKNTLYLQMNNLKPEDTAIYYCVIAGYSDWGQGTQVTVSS VL: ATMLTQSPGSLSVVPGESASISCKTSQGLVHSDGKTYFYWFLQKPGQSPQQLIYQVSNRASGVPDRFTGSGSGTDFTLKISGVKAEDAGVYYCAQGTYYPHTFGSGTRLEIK : 590 pM
3. 5E5WT scFv-Fc (antibody, V domains shown) VH: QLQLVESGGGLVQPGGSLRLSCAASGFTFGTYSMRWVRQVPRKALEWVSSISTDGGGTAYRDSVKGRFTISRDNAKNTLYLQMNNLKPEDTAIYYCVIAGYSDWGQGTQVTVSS VL: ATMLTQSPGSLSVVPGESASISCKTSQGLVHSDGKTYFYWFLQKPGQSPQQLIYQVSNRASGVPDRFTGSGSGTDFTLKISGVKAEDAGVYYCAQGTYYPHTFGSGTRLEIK : 20 pM

Could you now look at the following binder, please?
Query: Report Kd for 5E5VHWT_VL8 scFv-Fc (antibody, V domains shown) VH: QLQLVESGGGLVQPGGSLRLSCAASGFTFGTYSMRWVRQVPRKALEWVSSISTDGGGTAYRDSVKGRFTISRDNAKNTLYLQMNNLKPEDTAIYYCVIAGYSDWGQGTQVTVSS VL: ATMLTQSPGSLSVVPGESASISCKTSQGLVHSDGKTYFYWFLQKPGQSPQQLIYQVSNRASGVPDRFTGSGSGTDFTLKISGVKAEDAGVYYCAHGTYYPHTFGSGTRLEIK please.
Reply: 580 pM

Data provenance: patent US10538583
